All figures here come from patent US20160095823A1.

Molecular target: α1β heteromeric glycine receptors (Rattus norvegicus)
Construct: expressed in transfected cells; host or cells: HEK 293, transient electroporation, α:β cDNA 1:10, pCIS2 vector
Assay: Co-activation of the current response to 10 μM glycine, whole-cell patch clamp, transfected HEK 293 cells
Assay type: cell-based
Conditions: co-applied with 10 μM glycine; Hill fit; ± s.d.
Field: nH (Hill coefficient), coactivating response, α1β heteromer. Provide a value for each of the molecules that follow.

[[record]]
query_smiles = "Cc1cccc(O)c1"
system_tested = "α1β heteromeric glycine receptors (Rattus norvegicus)"
result = "1.0 ± 0.1"

[[record]]
query_smiles = "Cc1ccccc1O"
system_tested = "α1β heteromeric glycine receptors (Rattus norvegicus)"
result = "1.2 ± 0.2"

[[record]]
query_smiles = "Cc1cccc(C)c1O"
system_tested = "α1β heteromeric glycine receptors (Rattus norvegicus)"
result = "1.2 ± 0.1"

[[record]]
query_smiles = "Cc1cc(C)cc(O)c1"
system_tested = "α1β heteromeric glycine receptors (Rattus norvegicus)"
result = "1.3 ± 0.2"

[[record]]
query_smiles = "Cc1cc(O)cc(C)c1Cl"
system_tested = "α1β heteromeric glycine receptors (Rattus norvegicus)"
result = "1.3 ± 0.1"


Turning to the following molecule.
Name the reported nH (Hill coefficient), coactivating response, α1β heteromer value associated with the molecule Cc1cc(O)ccc1Cl
1.2 ± 0.3

* * *

Target: α1β heteromeric glycine receptors (Rattus norvegicus, UniProt P07727)
Construct: expressed in transfected cells; host or cells: HEK 293, transient electroporation, α:β cDNA 1:10, pCIS2 vector
Sequence (P07727 29-457): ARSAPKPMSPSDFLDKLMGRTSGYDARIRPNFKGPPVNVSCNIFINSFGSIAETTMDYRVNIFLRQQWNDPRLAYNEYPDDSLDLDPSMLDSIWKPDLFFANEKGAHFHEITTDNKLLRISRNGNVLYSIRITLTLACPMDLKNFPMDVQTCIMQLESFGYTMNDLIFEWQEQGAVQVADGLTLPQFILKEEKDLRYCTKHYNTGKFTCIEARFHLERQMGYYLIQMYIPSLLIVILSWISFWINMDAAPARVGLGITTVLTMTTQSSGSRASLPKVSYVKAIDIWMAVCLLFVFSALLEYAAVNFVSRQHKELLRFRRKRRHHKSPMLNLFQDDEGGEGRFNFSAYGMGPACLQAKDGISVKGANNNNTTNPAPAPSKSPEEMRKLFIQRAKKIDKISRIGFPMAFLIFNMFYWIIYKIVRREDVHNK
Sequence (P20781 23-496 partner): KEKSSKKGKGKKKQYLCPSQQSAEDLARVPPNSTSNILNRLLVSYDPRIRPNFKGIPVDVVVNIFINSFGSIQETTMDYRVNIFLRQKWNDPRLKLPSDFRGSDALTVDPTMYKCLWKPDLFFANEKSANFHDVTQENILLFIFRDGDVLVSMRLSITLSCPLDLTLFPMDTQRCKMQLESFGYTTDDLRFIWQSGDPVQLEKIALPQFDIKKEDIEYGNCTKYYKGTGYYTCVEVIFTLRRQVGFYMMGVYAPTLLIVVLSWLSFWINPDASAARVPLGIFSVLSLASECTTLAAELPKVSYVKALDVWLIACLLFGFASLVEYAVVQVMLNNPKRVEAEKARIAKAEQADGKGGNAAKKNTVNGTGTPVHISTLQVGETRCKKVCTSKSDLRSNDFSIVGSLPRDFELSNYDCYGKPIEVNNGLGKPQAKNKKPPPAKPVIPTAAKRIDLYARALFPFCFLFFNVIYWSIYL
Assay: Direct activation of Cl- inward currents (agonist applied alone), whole-cell patch clamp, HEK 293
Assay type: cell-based
Settings: read-out: half-maximum concentration (EC50) for direct activation
Field: EC50. Provide a value for each of the compounds that follow.
One number for each entry, in µM.

[[record]]
compound = "Cc1cc(C)cc(O)c1 [3,5 dimethylphenol]"
quantitative_result = 1470


Name the reported EC50 value associated with the compound Cc1cccc(C)c1O [2,6 dimethylphenol]
1550

* * *

Field: pEC50. Provide a value for each of the compounds that follow.
Target: α1β heteromeric glycine receptors (Rattus norvegicus)
Construct: expressed in transfected cells; host or cells: HEK 293, transient electroporation, α:β cDNA 1:10, pCIS2 vector
Assay: Co-activation of the current response to 10 μM glycine, whole-cell patch clamp, transfected HEK 293 cells
Type: cell-based
Experimental: Reduced sensitivity to 1000 μM picrotoxin in α1β heteromeric receptors was used as an assay of the efficacy of β subunit expression. […] The phenol derivatives under investigation were prepared as 1 M stock solution in ethanol, light-protected and stored in glass vessels at −20° C. Concentrations were calculated from the amount injected into the glass vials. […]
Give bare numbers, as −log10 of the molar value.

[[record]]
compound = "Cc1cc(O)ccc1Cl [3 methyl-4-chlorophenol]"
property = "pEC50"
quantitative_result = 5.40


Turning to the following compound.
Name the reported pEC50 value associated with the compound Cc1ccccc1O [2 methylphenol]
3.35

* * *

Molecular target: α1 homomeric glycine receptors (Rattus norvegicus)
Construct: expressed in transfected cells; host or cells: HEK 293, transient electroporation, cDNA in pCIS2, GFP cDNA co-transfected as marker
Sequence (P07727 29-457): as the sequence (P07727 29-457) above
Test: Co-activation of the current response to 10 μM glycine, whole-cell patch clamp, transfected HEK 293 cells
Format: cell-based
Details: co-applied with 10 μM glycine; Hill fit; ± s.d.
# cutoff 1 applies to nH (Hill coefficient), coactivating response, α1 homomer; >= gives YES, < gives NO

Completed entries (count: 5):
[[record]]
query_smiles = "Cc1ccccc1O"
system_tested = "α1 homomeric glycine receptors (Rattus norvegicus)"
qualitative_label = "NO"

[[record]]
query_smiles = "Cc1cccc(C)c1O"
system_tested = "α1 homomeric glycine receptors (Rattus norvegicus)"
qualitative_label = "YES"

[[record]]
query_smiles = "Cc1cc(O)cc(C)c1Cl"
system_tested = "α1 homomeric glycine receptors (Rattus norvegicus)"
qualitative_label = "YES"

[[record]]
query_smiles = "Cc1cc(O)ccc1Cl"
system_tested = "α1 homomeric glycine receptors (Rattus norvegicus)"
qualitative_label = "YES"

[[record]]
query_smiles = "Cc1cccc(O)c1"
system_tested = "α1 homomeric glycine receptors (Rattus norvegicus)"
qualitative_label = "NO"


nH (Hill coefficient), coactivating response, α1 homomer >= 1 for Cc1cc(C)cc(O)c1 ?
YES
